- MEASUREMENT PROTOCOL: qHTS assay for small molecules that induce genotoxicity in human embryonic kidney cells expressing luciferase-tagged ATAD5 (AID 651632); further: nearly all actives have a fitted effect of over 15% in size; further: potency means the concentration at half of the fitted maximal effect; on activation: on the % scale 0 is the no-effect control and ±100 the full control effect
- CONDITION INFO: HEK293T ATAD5-luciferase induction, 16 h; series mostly up to 83.3 µM
Results filed as inconclusive are left out. Calls of active or inactive are those of the source. The call rests on the fitted dose curve; in most records, active means well fitted activation curve with a large enough effect in the repeat runs; inconclusive means weak or mixed curves; inactive means no such curve, though single readings can be large or run the other way.
MEASUREMENT TYPE: Potency

>>> print(df.to_string())
                                   compound   reported_result
0  CCN1CCCC1CNC(=O)c1cc(S(N)(=O)=O)ccc1OC (stereo unspecified)          inactive
1  C1C2OC2C2C1C1CC2C2OC12 (stereo unspecified)          inactive
2  Cc1cc(C)c(NC(=O)CN(CC(=O)O)CC(=O)O)c(C)c1Br          inactive
3       Cn1ccc2cc3c(cc21)CCN3C(=O)Nc1cccnc1  11.9 µM (active)
4  Oc1ccc2c(c1)OC[C@@H](N1CCC(O)(c3ccc(F)cc3)CC1)[C@H]2O   7.5 µM (active)

stdin: If you can, please state the reported Potency value of COC(=O)CCCCCCCCC(=O)OC .
stdout: inactive

----------
- MEASUREMENT PROTOCOL: qHTS RealTime-Glo MT Cell Viability Assay in HepG2 cells - 24 hour (AID 1224867); further: on the % scale 0 is the no-effect control and ±100 the full control effect; nearly all actives have a fitted effect of over 50% in size
- CONDITION INFO: RealTime-Glo luminescence; series mostly up to 76.8 µM
Results filed as inconclusive are left out. Activity calls are given as the source filed them. The call rests on the fitted dose curve; in most records, active means well fitted cell-killing curve with a large enough effect in the repeat runs; inconclusive means weak or mixed curves; inactive means flat fitted curve, though single readings scatter.
MEASUREMENT TYPE: activity change, negative = cytotoxicity

Some molecules with recorded activity change, negative = cytotoxicity:
In [3]: df
Out[3]:
                                   molecule                reported_result
0                            C1CCCCCCCCCCC1  3.08% [at 15.8 µM] (inactive)
1           C(=C(c1ccccc1)c1ccccc1)c1ccccc1                       inactive
2             CC(=O)N[C@@H](CCC(N)=O)C(=O)O                       inactive
3  C1C2OC2C2C1C1CC2C2OC12 (stereo unspecified)                       inactive
4               CC(C)(O)C(=O)c1ccc(OCCO)cc1                       inactive

Please look at the following molecule next.
stdin: If you can, please state the reported activity change, negative = cytotoxicity value of CCCCCCCCCCCCCCCCCC(=O)OCCCCCCCCCCCCCC(C)C .
stdout: inactive

----------
- MEASUREMENT PROTOCOL: qHTS assay to test for compound auto fluorescence at 590 nm (red) in HEK293 cells (AID 720679); further: on the % scale 0 is the no-effect control and ±100 the full control effect
- CONDITION INFO: red autofluorescence 540/590 nm; series mostly up to 91.3 µM
Activity calls are given as the source filed them. The call rests on the fitted dose curve; in most records, active means well fitted curve in the direction sought with a large enough effect in the repeat runs; inconclusive means weak or mixed curves; inactive means flat fitted curve, though single readings scatter.
MEASUREMENT TYPE: fluorescence, % of fluorescent control

Some compounds with recorded fluorescence, % of fluorescent control:
                                   compound                        measurement_type  reported_result
0          CCCC(C)C(=O)O (stereo not drawn)  fluorescence, % of fluorescent control         inactive
1                            CCCc1ccc(N)cc1  fluorescence, % of fluorescent control         inactive
2                  CCC(=O)/C=C/c1ccc(OC)cc1  fluorescence, % of fluorescent control         inactive
3  Cc1nccn1CC1CCc2c(c3ccccc3n2C)C1=O (stereo not drawn)  fluorescence, % of fluorescent control         inactive
4  CC(C)c1ccc2oc3nc(N)c(C(=O)O)cc3c(=O)c2c1  fluorescence, % of fluorescent control         inactive
5                       CN(C)C(=O)Nc1ccccc1  fluorescence, % of fluorescent control         inactive

For every listed record, write down its fluorescence, % of fluorescent control.
1. NC(N)=NS(=O)(=O)c1ccc(N)cc1
2. CC(C)[C@H](N)C(=O)OCCOCn1cnc2c(=O)[nH]c(N)nc21
3. C1CCCCCCCCCCC1
4. CCCCCC[C@@H](CCC)C(=O)O

stdout:
0.29% [at 18.6 µM] (inactive)
inactive
-0.0949% [at 18.6 µM] (inactive)
inactive

For every listed record, write down its fluorescence, % of fluorescent control.
1. CCCCCCCCCCCCCCCCCC(=O)OCCCCCCCCCCCCCC(C)C
2. Cc1nc(-c2ccc(OCC(C)C)c(C#N)c2)sc1C(=O)O
3. C#CC(O)CCCCC (stereo not drawn)
4. COCCOC(=O)CC#N
5. CCCCCCCCCCCCCCC

stdout:
1. inactive
2. inactive
3. inactive
4. inactive
5. inactive

For every listed record, write down its fluorescence, % of fluorescent control.
1. CCCCCCC(CCCCCCCCCCC(=O)OCC(COC(C)=O)OC(C)=O)OC(C)=O (stereo not drawn)
2. CN(C)CCn1nnnc1SCC1=C(C(=O)O)N2C(=O)[C@@H](NC(=O)Cc3csc(N)n3)[C@H]2SC1
3. C[C@H]1O[C@@H](n2cc(F)c(=O)[nH]c2=O)[C@H](O)[C@@H]1O
4. CC/C=C\CCCCO
5. CC(C)N1C(=O)c2ccccc2C1=O

stdout:
1: inactive; 2: -0.137% [at 18.6 µM] (inactive); 3: inactive; 4: inactive; 5: inactive

----------
- MEASUREMENT PROTOCOL: qHTS assay to identify small molecule antagonists of the estrogen related receptor signaling pathway with the pleiotropic PPARgamma coactivator (PGC) cell viability counter screen (AID 1224822;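 further: viability read after 17.5 h compound exposure; on the % scale 0 is the no-effect control and ±100 the full control effect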)
- CONDITION INFO: ERR/PGC reporter cell line viability counter screen; series mostly up to 46.1 µM
Results filed as inconclusive are left out. The source made the active and inactive calls. Calls come from the whole dose curve; as a rule, active = well fitted cell-killing curve with a large enough effect in the repeat runs; inconclusive = weak or mixed curves, or effect the other way; inactive = flat fitted curve, though single readings scatter.
MEASUREMENT TYPE: outcome

Some molecules with recorded outcome:
>>> df
                                   molecule  reported_result
0  NC(=O)c1ncn([C@@H]2O[C@H](CO)[C@@H](O)[C@H]2O)c1O         inactive
1  CCCCCN(CCCCC)C(=O)C(CCC(=O)O)NC(=O)c1ccc(Cl)c(Cl)c1 (stereo unspecified)         inactive
2  CN(C)C(=O)C(CCN1CCC(O)(c2ccc(Cl)cc2)CC1)(c1ccccc1)c1ccccc1         inactive
3               CCN(CC)C(=O)c1ccc(O)c(OC)c1         inactive
4  C[C@H]1O[C@@H](n2cc(F)c(=O)[nH]c2=O)[C@H](O)[C@@H]1O         inactive

Please look at the following molecule next.
stdin: If you can, please state the reported outcome value of CCCOc1ccccc1-c1nc2n[nH]nc2c(=O)[nH]1 .
stdout: inactive

----------
- TESTED ON: Peroxisome proliferator-activated receptor gamma (Homo sapiens)
- MEASUREMENT PROTOCOL: qHTS assay to identify small molecule antagonists of the peroxisome proliferator-activated receptor gamma (PPARg) signaling pathway (AID 743191); further: on the % scale 0 is the no-effect control and ±100 the full control effect; nearly all actives have a fitted effect of over 30% in size
- CONDITION INFO: HEK293H PPARg-UAS-bla, beta-lactamase ratio, antagonist, 17 h; series mostly up to 62.6 µM
Results filed as inconclusive are left out. Calls of active or inactive are those of the source. Calls come from the whole dose curve.
MEASUREMENT TYPE: ratio activity, negative = inhibition

MOLECULE	MEASUREMENT TYPE	REPORTED RESULT
N#CC1(O)CCCCC1	ratio activity, negative = inhibition	inactive
COC(C(=O)O)c1ccccc1 (centres undefined)	ratio activity, negative = inhibition	inactive
NC(=O)c1c(Cl)cccc1Cl	ratio activity, negative = inhibition	inactive
Nc1[nH]c(=O)ncc1F	ratio activity, negative = inhibition	inactive
CCC(=O)Nc1cccc(N)c1	ratio activity, negative = inhibition	inactive
CC(C)N1C(=O)c2ccccc2C1=O	ratio activity, negative = inhibition	inactive
CC(=O)c1ccc(C)cc1	ratio activity, negative = inhibition	inactive
c1ccc2cnncc2c1	ratio activity, negative = inhibition	inactive
CC(=O)CCc1ccc(O)cc1	ratio activity, negative = inhibition	inactive
Cc1cc(C)c(NC(=O)CN(CC(=O)O)CC(=O)O)c(C)c1Br	ratio activity, negative = inhibition	inactive

For every listed record, write down its ratio activity, negative = inhibition.
1. CC1=CC(=O)CCC1
2. CCCCCCCCCCC1CO1 (centres undefined)
3. NCC[C@H](O)C(=O)N[C@@H]1C[C@H](N)[C@@H](O[C@H]2O[C@H](CN)[C@@H](O)[C@H](O)[C@H]2O)[C@H](O)[C@H]1O[C@H]1O[C@H](CO)[C@@H](O)[C@H](N)[C@H]1O
4. CCCCC1CCCCC(=O)O1 (centres undefined)

stdout:
1: inactive; 2: inactive; 3: 0.895% [at 0.55 µM] (inactive); 4: inactive
